- experiment: Serum fatty acid form concentrations (complex lipidomics) in dolphins fed modified fish diet
- Assay type: in vivo
- recorded.conditions: bottlenose dolphin (Tursiops truncatus), serum, oral; case dolphins fed modified diet (n = 20), Month 6; read-out: Serum concentration, FFA (free fatty acid) form
readout: concentration at 6 month
Quote the value and follow it with the unit of measurement.

Give the value of concentration at 6 month reported for the following: CCCCCCCCCCCCCCC(=O)O
3.8 µM

---

- experiment: Serum fatty acid form concentrations (complex lipidomics) in dolphins fed modified fish diet
- Assay type: in vivo
- recorded.conditions: bottlenose dolphin (Tursiops truncatus), in vivo; case dolphins fed modified diet (n = 20), Month 6; read-out: Serum concentration, FFA (free fatty acid) form
readout: concentration at 6 month (µM)
Hi! Could you send only the number? It should be in µM, unit omitted.

Give the value of concentration at 6 month reported for the following: CCCCCCCCCCCCCCCCCCCC(=O)O [C20:0, arachidic acid]
17
